Entries with reported IC50 on 5-hydroxytryptamine receptor 2C (Homo sapiens, UniProt P28335)
Sequence (P28335 whole entry): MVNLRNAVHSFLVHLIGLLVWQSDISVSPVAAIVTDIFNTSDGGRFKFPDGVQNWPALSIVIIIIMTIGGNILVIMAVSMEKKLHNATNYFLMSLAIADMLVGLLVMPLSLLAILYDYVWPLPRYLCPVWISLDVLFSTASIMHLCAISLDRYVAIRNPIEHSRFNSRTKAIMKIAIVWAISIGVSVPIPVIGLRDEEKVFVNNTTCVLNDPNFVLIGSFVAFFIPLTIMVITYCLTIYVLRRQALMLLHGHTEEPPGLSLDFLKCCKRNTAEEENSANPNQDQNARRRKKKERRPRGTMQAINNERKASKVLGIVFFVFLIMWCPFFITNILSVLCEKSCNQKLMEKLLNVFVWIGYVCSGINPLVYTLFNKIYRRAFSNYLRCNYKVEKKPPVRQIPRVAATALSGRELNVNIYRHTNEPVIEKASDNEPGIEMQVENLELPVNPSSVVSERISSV
readout: IC50 (nM)

In [3]: df
Out[3]:
                                   compound  valuereported
0  COc1cc2c(CCNC(C)=O)cccc2cc1F [US11980598, Compound 4]           20.8
1  COc1cc2c(CCNC(C)=O)cccc2cc1Cl [US11980598, Compound 1]           0.77
